src = PubChem BioAssay (NCATS)

experiment: Cellular Toxicity (caspase-3) Mesangial (AID 660);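 also: combined caspase 3 and 7 activity read by Caspase-Glo luminescence; cells exposed to compound for 16 h before the caspase read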
conditionParameters: mesangial cells, normalized: DMSO 0%, 100 µM tamoxifen 100%; at 91.7 µM (top of the series)
readoutType: caspase-3 activation (%)
# unit: % | format: bare number

Reference set, count: 4
>>> df
          compound  numericresult
0          CC(C)CO          0.186
1      N#Cc1ccccc1         -0.669
2  Cc1ccc(C)c(O)c1          0.131
3     C=CCCCCCCC=C           4.38

Now for a further compound.
Tell me measured caspase-3 activation for C1CCC2OC2C1 (stereo not given) please.
-0.0644
